Hello, the source for this data is PubChem BioAssay AID1745844, in case you need it.

- System: rodent lifetime carcinogenesis bioassay, tumor incidence TD50
- protocol: carcinogenic potency in animals, long-term in vivo studies, CPDB compilation (AID 1745844)
- cond: rat; strain Fischer 344; males; by gavage; site: subcutaneous tissue; lesion: fibrosarcoma; dosed 106 weeks; study length 108 weeks
property: TD50 (mg/kg/day)
Give bare numbers, in mg/kg/day.

Task: Please tell me the measured TD50 for Cc1ccc(N=C=O)cc1N=C=O ; system: rodent lifetime carcinogenesis bioassay, tumor incidence TD50.
Result: 92.4

---

- Tested on: rodent lifetime carcinogenesis bioassay, tumor incidence TD50
- protocol: carcinogenic potency in animals, long-term in vivo studies, CPDB compilation (AID 1745844)
- cond: rat; strain Fischer 344; females; in drinking water; site: liver; lesion: hepatocellular carcinoma; dosed 37 weeks; study length 85 weeks
property: TD50
Give the number first and the unit second.

Task: Tell me measured TD50 for CC(O)CN(CC(O)CO)N=O (stereo unspecified) please.
Result: 2.4 mg/kg/day

---

- Test system: rodent lifetime carcinogenesis bioassay, tumor incidence TD50
- protocol: carcinogenic potency in animals, long-term in vivo studies, CPDB compilation (AID 1745844)
- cond: mouse; strain B6C3F1; males; by gavage; site: Harderian gland; lesion: papillary adenoma; dosed 102 weeks; study length 103 weeks
property: TD50

Task: Tell me measured TD50 for CC(C)=CCl please.
Result: 149 mg/kg/day

---

- System: rodent lifetime carcinogenesis bioassay, tumor incidence TD50
- protocol: carcinogenic potency in animals, long-term in vivo studies, CPDB compilation (AID 1745844)
- cond: rat; strain Fischer 344; males; in feed; site: pancreatic islets; lesion: islet-cell adenoma + islet-cell carcinoma; dosed 103 weeks; study length 105 weeks
property: TD50

Task: Tell me measured TD50 for CCCOC(=O)c1cc(O)c(O)c(O)c1 please.
Result: 840 mg/kg/day

---

- Tested on: rodent lifetime carcinogenesis bioassay, tumor incidence TD50
- protocol: carcinogenic potency in animals, long-term in vivo studies, CPDB compilation (AID 1745844)
- cond: rat; strain Fischer 344; males; by gavage; site: kidney; lesion: tubule adenoma; dosed 104 weeks; study length 104 weeks
property: TD50

Task: Tell me measured TD50 for O=P(OCCCl)(OCCCl)OCCCl please.
Result: 56.9 mg/kg/day

---

- Test system: rodent lifetime carcinogenesis bioassay, tumor incidence TD50
- protocol: carcinogenic potency in animals, long-term in vivo studies, CPDB compilation (AID 1745844)
- cond: rat; strain Fischer 344; females; in feed; site: liver; lesion: hepatocellular carcinoma; dosed 53 weeks; study length 78 weeks
property: TD50

Task: Tell me measured TD50 for Cn1c(N)nc2c3cccnc3ccc21 please.
Result: 5.06 mg/kg/day

---

- Tested on: rodent lifetime carcinogenesis bioassay, tumor incidence TD50
- protocol: carcinogenic potency in animals, long-term in vivo studies, CPDB compilation (AID 1745844)
- cond: rat; strain ACI; females; in feed; site: cecum; lesion: adenoma; dosed 68 weeks; study length 68 weeks
property: TD50 (mg/kg/day)
One number for each entry, in mg/kg/day.

Task: Please tell me the measured TD50 for CCOC(=O)c1ccc(N)cc1 ; system: rodent lifetime carcinogenesis bioassay, tumor incidence TD50.
Result: 1270

---

- Test system: rodent lifetime carcinogenesis bioassay, tumor incidence TD50
- protocol: carcinogenic potency in animals, long-term in vivo studies, CPDB compilation (AID 1745844)
- cond: rat; strain MRC-Wistar; females; in drinking water; site: liver; lesion: hepatocellular adenoma; dosed 78 weeks; study length 130 weeks
Calls of active or inactive are those of the source. How the calls were made is not given here.
property: TD50

Task: Please tell me the measured TD50 for CC(C)=NO ; system: rodent lifetime carcinogenesis bioassay, tumor incidence TD50.
Result: 127 mg/kg/day (inactive)
